Reported viability values follow for various compounds
PROTOCOL DESCRIPTION: drug combination growth inhibition, ovarian cancer – cell-based, oncology-focused library, rucaparib conditional, profiling panel (AID 1508598)
PARTICULARS: patient-derived ovarian cancer cells, CellTiter-Glo viability, 144 h; at 0.00122 µM; OCI-P5x cells; without rucaparib; active compounds read low
Unit % implied. Number only.

GIVEN SMILES	viability (%)
COc1c(C)cnc(Cn2cnc3c(Cl)nc(N)nc32)c1C	110
S=C(NCc1ccc2c(c1)OCO2)N1CCN(c2ncnc3c2oc2ccccc23)CC1	98.2
O=C(Nc1cn[nH]c1-c1nc2ccc(CN3CCOCC3)cc2[nH]1)NC1CC1	116
C=CCn1c(=O)c2cnc(Nc3ccc(N4CCN(C)CC4)cc3)nc2n1-c1cccc(C(C)(C)O)n1	98.1
Nc1ccccc1NC(=O)c1ccc(CNc2nccc(-c3cccnc3)n2)cc1	116
CNC(=O)c1ccc(N2C(=S)N(c3ccc(C#N)c(C(F)(F)F)c3)C(=O)C2(C)C)cc1F	82

Sample `NC(=O)Nc1cc(-c2cccc(F)c2)sc1C(=O)N[C@H]1CCCNC1` — what was its viability?
86.4

Sample `Nc1nc(Nc2ccc(S(N)(=O)=O)cc2)nn1C(=O)c1c(F)cccc1F` — what was its viability?
86

Sample `CNC(=O)c1cc(Oc2ccc(NC(=O)Nc3cc(C(C)(C)C)nn3-c3ccc4ncccc4c3)c(F)c2)ccn1` — what was its viability?
103

Sample `O=C(NC1CCNCC1)c1[nH]ncc1NC(=O)c1c(Cl)cccc1Cl` — what was its viability?
103

Sample `COC(=O)Nc1ccc(-c2nc(N3CCOCC3)c3cnn(C4CCN(C(=O)OC)CC4)c3n2)cc1` — what was its viability?
93.1

Sample `COc1nc(C)cnc1NS(=O)(=O)c1cccnc1-c1ccc(-c2nnco2)cc1` — what was its viability?
109

Sample `C=C(c1ccc(C(=O)O)cc1)c1cc2c(cc1C)C(C)(C)CCC2(C)C` — what was its viability?
111

---

Reported fold fluorescence values follow for various compounds
PROTOCOL DESCRIPTION: chitosan synthesis blockers in C. neoformans – flow cytometry, Cibacron Brilliant Red staining (AID 1347148);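 also: compound exposure lasted three days at 37 degrees C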
PARTICULARS: Cryptococcus neoformans chitosan, active compounds read low; at 10 µM unless noted
The source made the active and inactive calls. The rule behind the calls is not given here. Where a SMILES comes first, the peptide text is derived from it. The star is where a group is joined. Cbz = O=C(OCc1ccccc1)*

COMPOUND	fold fluorescence
CC(=O)N[C@@H](CSC/C=C(\C)CC/C=C(\C)CC/C=C(\C)CCC=C(C)C)C(=O)O	5.22 (inactive)
CCCCCCCCCCCCC/C=C/[C@@H](O)[C@@H](N)CO	8.01 (inactive)
COC(=O)C1=C(C)NC(C)=C(C(=O)OCCCN2CCC(c3ccccc3)(c3ccccc3)CC2)[C@H]1c1cccc([N+](=O)[O-])c1	5.27 [at 82 µM] (inactive)
Cc1ccc2c(c1)C(=O)[C@]1(O)CCN(c3ccccc3)C1=N2	7.57 [at 171 µM] (inactive)
CCCCCCCCCCC/C=C\C(C)(C)/C=C\CCCC(=O)O	5.21 (inactive)
CC(C)[C@H](NC(=O)OCc1ccccc1)C(=O)N[C@H](C=O)Cc1ccccc1 (Cbz-Val-Phe-aldehyde)	5.31 [at 130.7 µM] (inactive)
C1CCC(N=C(NC23CC4CC(CC(C4)C2)C3)N2CCOCC2)CC1	11.7 [at 130.9 µM] (inactive)
CC1(C)CCC2=C(O1)c1ccccc1C(=O)C2=O	9.76 [at 206.4 µM] (inactive)
CCCCC[C@H](O)/C=C/C1=C(CCCCCCC(=O)O)C(=O)CC1	3.81 (inactive)

Consider the record given below.
Sample `CCCCC/C=C\C/C=C\C/C=C\CCCCCCC(=O)O` — what was its fold fluorescence?
4.94 (inactive)

---

PROTOCOL DESCRIPTION: growth inhibition of DIPG cells – cell-based, MIPE5.0 library, qHTS (AID 1347068);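 as to IC50: cells exposed to compound for 48 hours before viability readout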
PARTICULARS: SU-DIPG-XXV viability
Inconclusive results are not listed. Activity calls are given as the source filed them. Cut-off not given; nearly all actives show IC50 up to about 30 µM.
// one of active, inactive, no free text

Completed entries (count: 5):
MOLECULE	CLASSIFICATION
CC1(C)Cc2c(-c3ccccc3)c(-c3ccc(Cl)cc3)c(CC(=O)O)n2C1	inactive
CCn1c(=O)c(-c2ccc(-c3cncs3)cc2Cl)cc2cnc(Nc3ccc(N4CCN(C)CC4)cc3)nc21	active
CN(C)C/C=C/C(=O)Nc1ccc(C(=O)N2CCC[C@@H](Nc3ncc(Cl)c(-c4c[nH]c5ccccc45)n3)C2)cc1	active
OCCOc1ccc(/C(=C(/CCCl)c2ccccc2)c2ccccc2)cc1	inactive
CC(=O)C1CCC2C3CCC4=CC(=O)CCC4(C)C3CCC12C (centres undefined)	inactive

Each molecule tested received a call. Report the one for `CCCCC(C)(C)[C@H](O)/C=C/[C@H]1[C@H](O)CC(=O)[C@@H]1C/C=C\CCCC(=O)O` .
inactive

---

PROTOCOL DESCRIPTION: JHH-DIPG-1 glioma cell viability, MIPE5.0 library, CellTiter-Glo luminescence, qHTS (AID 1347067);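 also: cells exposed to compound for 48 hours before readout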
PARTICULARS: JHH-DIPG-1 glioma viability, CellTiter-Glo ATP luminescence
Results filed as inconclusive are left out. Activity calls are given as the source filed them. Cut-off not given; nearly all actives show AC50 up to about 26 µM.
// one of true = active, false = inactive, no free text

Each molecule tested received a call. Report the one for Cc1ccc(O)c(C(CCN(C(C)C)C(C)C)c2ccccc2)c1 (stereo not given) .
false

Each molecule tested received a call. Report the one for `O=c1c(-n2ccnn2)c[nH]n1-c1cc(N2CCOCC2)ncn1` .
false

Each molecule tested received a call. Report the one for `Cc1cc(OCCCS(C)(=O)=O)cc(C)c1-c1cccc(COc2ccc3c(c2)OC[C@H]3CC(=O)O)c1` .
false

---

PROTOCOL DESCRIPTION: viability loss in pontine glioma line – cell-based, SU-DIPG-XVII, MIPE5.0, CellTiter-Glo, qHTS, dose response (AID 1347060);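 as to AC50: cells exposed to compound for 48 hours before viability readout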
PARTICULARS: CellTiter-Glo ATP luminescence
Records with an inconclusive call do not appear. Calls of active or inactive are those of the source. Cut-off not given; nearly all actives show AC50 up to about 26 µM. Where a SMILES comes first, the peptide text is derived from it. The star is where a group is joined. Cbz = O=C(OCc1ccccc1)*
VALUE TYPE: AC50

COMPOUND	AC50
CC(C)c1cc(-c2n[nH]c(=O)n2-c2ccc3c(ccn3C)c2)c(O)cc1O	0.0372 µM (active)
CN(C)C/C=C/C(=O)Nc1cccc(C(=O)Nc2cccc(Nc3ncc(Cl)c(-c4c[nH]c5ccccc45)n3)c2)c1	0.417 µM (active)
COc1ccc(/C=C\c2cc(OC)c(OC)c(OC)c2)cc1NC(=O)[C@H](N)CO	0.0833 µM (active)
COc1cc(C(=O)NC(N)=Nc2ccc(C)c(NC(=O)c3ccc(-c4ccccc4)cc3)c2)cc(OC)c1OC	16.6 µM (active)
O=C1NC(=O)/C(=C/c2ccc3nccc(-c4ccncc4)c3c2)S1	1.18 µM (active)
O=C(/C=C/c1cccnc1)NCCCCC1CCN(C(=O)c2ccccc2)CC1	0.0118 µM (active)

Sample `COc1cc2c(NC3CCN(CC4CCCCC4)CC3)nc(N3CCCN(C(C)C)CC3)nc2cc1OCCCN1CCCCC1` — what was its AC50?
14.8 µM (active)

Sample `CC(C)C[C@H](NC(=O)[C@@H](NC(=O)c1cccc(-c2ccccc2)n1)[C@@H](C)O)B(O)O` — what was its AC50?
0.0456 µM (active)

Sample `O=C(Nc1cccc(Nc2ncc(Br)c(NCCc3cnc[nH]3)n2)c1)N1CCCC1` — what was its AC50?
4.17 µM (active)

Sample `O=C(CCCCCCNC(=O)c1cnc(N(c2ccccc2)c2ccccc2Cl)nc1)NO` — what was its AC50?
8.33 µM (active)

Sample `CCCCCCCOc1ccc(CCC(N)(CO)CO)cc1C(F)(F)F` — what was its AC50?
8.33 µM (active)

Sample `CCC[C@H](N[C@H]1CCc2cc(F)cc(F)c2C1)C(=O)Nc1cn(C(C)(C)CNCC(C)(C)C)cn1` — what was its AC50?
33.2 µM (active)

Sample `NC(=O)c1ccc2nc(-c3ccc(C4(N)CCC4)cc3)c(-c3ccccc3)n2n1` — what was its AC50?
13.2 µM (active)

Sample `COC(=O)N1CCN(Cc2cccc(NC(=O)Nc3ccc(C)nc3)c2F)CC1` — what was its AC50?
inactive

Sample `CON(C)C(=O)N1N=C(c2cc(F)ccc2F)S[C@@]1(CCCN)c1ccccc1` — what was its AC50?
0.00525 µM (active)

Sample `CCOC(=O)N1CCN(/[N+]([O-])=N/Oc2ccc([N+](=O)[O-])cc2[N+](=O)[O-])CC1` — what was its AC50?
16.6 µM (active)

Sample `Cc1cc(C)cc(NC(=O)Cc2ccc(OC(C)(C)C(=O)O)cc2)c1` — what was its AC50?
inactive

Sample `O=C(c1cc(Cc2n[nH]c(=O)c3ccccc23)ccc1F)N1CCN(C(=O)C2CC2)CC1` — what was its AC50?
20.9 µM (active)

Sample CC(C)C[C@@H](C=O)NC(=O)[C@H](CC(C)C)NC(=O)[C@H](CC(C)C)NC(=O)OCc1ccccc1 (Cbz-Leu-Leu-Leu-aldehyde) — what was its AC50?
0.468 µM (active)
